Readings of % Disp. MC-1 10 μM for the listed compounds
# testedTarget: MCR-1 (Homo sapiens)
# Construct: expressed in transfected cells; host or cells: HEK 293
# Sequence (Q01726 whole entry): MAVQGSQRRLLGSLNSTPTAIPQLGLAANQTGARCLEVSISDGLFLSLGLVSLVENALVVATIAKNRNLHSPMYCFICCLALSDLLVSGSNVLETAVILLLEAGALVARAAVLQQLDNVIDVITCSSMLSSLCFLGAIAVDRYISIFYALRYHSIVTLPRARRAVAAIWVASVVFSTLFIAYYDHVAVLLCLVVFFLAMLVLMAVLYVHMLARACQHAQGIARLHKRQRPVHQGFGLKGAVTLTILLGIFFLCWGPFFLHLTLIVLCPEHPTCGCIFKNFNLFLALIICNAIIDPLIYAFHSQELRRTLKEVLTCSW
# measurementProtocol: Melanocortin receptor binding assay, competition with 125I-HP 467, HEK 293 cells expressing hMCR-1
# runParameters: displacement of 125I-HP 467 at 10 μM isoquinoline compound; first of duplicate
Kindly provide the numeric value in % only, without the unit symbol.

Examples with answers:
CNC(CN)CN1Cc2ccccc2C(CNC2CCCCC2)C1c1cc(Cl)cc(Cl)c1Cl (stereo not shown) [TRG 2405-97]    58.2
NCCN1Cc2ccccc2C(CNC2CCCCC2)C1c1ccc2ccccc2n1 (stereo not shown) [TRG 2405-22]    29.7
CCNc1ccc(C2C(CNC3CCCCC3)c3ccccc3CN2CC(CN)NC)cc1 (stereo not shown) [TRG 2405-149]    30.1

Prompt line: Tell me the measured % Disp. MC-1 10 μM of NCCN1Cc2ccccc2C(CNC2CCCCC2)C1c1nccs1 (stereo not shown) [TRG 2405-90] , please.
Response line: 48.4

* * *

# testedTarget: MCR-1 (Homo sapiens)
# Construct: expressed in transfected cells; host or cells: HEK 293
# measurementProtocol: Melanocortin receptor binding assay, competition with 125I-HP 467, HEK 293 cells expressing hMCR-1
# runParameters: 10 μM isoquinoline compound, HEK 293 cells expressing MCR-1, duplicate 1
Readings of % Disp. of 125I-HP 467 (first of duplicate) for the listed molecules
Kindly provide the numeric value in % only, without the unit symbol.

CNC(CN)CCCCN1Cc2ccccc2C(CNC2CCCCC2)C1c1ccco1 (stereo not shown) [TRG 2405-197]    41.9
CNC(CN)CCCCN1Cc2ccccc2C(CNC2CCCCC2)C1c1ccc(S(C)(=O)=O)cc1 (mixture of isomers) [TRG 2405-267]    21.5
CNC(CN)CCCCN1Cc2ccccc2C(CNC2CCCCC2)C1c1cccc(O)c1 (stereo not shown) [TRG 2405-223]    33.6

Next, consider the following molecule.
Prompt line: Tell me the measured % Disp. of 125I-HP 467 (first of duplicate) of CNC(CN)CCCCN1Cc2ccccc2C(CNC2CCCCC2)C1c1ccc([N+](=O)[O-])c(O)c1 (mixture of isomers) [TRG 2405-250] , please.
Response line: 34.7

* * *

# testedTarget: MCR-4 (Homo sapiens, UniProt P32245)
# Construct: expressed in transfected cells; host or cells: HEK 293
# Sequence (P32245 whole entry): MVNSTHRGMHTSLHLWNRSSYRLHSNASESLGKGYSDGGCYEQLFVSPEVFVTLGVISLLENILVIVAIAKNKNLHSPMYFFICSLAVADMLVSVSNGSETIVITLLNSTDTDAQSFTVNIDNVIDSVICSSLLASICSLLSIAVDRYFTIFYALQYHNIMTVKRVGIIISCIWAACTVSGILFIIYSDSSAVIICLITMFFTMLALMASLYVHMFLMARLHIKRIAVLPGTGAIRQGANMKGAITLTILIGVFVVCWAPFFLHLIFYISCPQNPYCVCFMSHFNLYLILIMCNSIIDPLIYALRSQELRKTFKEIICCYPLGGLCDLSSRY
# measurementProtocol: Melanocortin receptor binding assay, competition with 125I-HP 467, HEK 293 cells expressing hMCR-4
# runParameters: TRG 2408 and TRG 2409 libraries; inhibition of 125I-HP 467 binding; read-out: MC-4 IC50
Readings of pIC50 for the listed compounds
# pIC50 = -log10(concentration in molar units)

Examples with answers:
NC[C@H](N)CCCCN1Cc2ccccc2C(CNC2CCCCC2)C1c1ccc(Cl)cc1Cl (some centres unmarked)    5.41
CNCCNC(CN)CCCN1Cc2ccccc2C(CNC2CCCCC2)C1c1ccc(-c2ccccc2)cc1 (centres unmarked)    4.81
CNC(CN)CCCN1Cc2ccccc2C(CNC2CCCCC2)C1c1ccc(-c2ccccc2)cc1 (centres unmarked)    4.91
NCC(CCN1Cc2ccccc2C(CNC2CCCCC2)C1c1ccc(Cl)cc1Cl)NCCc1ccccc1 (mixture of isomers)    5.73
CCNc1ccc(C2C(CNCc3ccccc3O)c3ccccc3CN2CCCC(CN)NCCc2ccccc2)cc1 (centres unmarked)    5.22

Prompt line: // map NC[C@@H](CCCCN1Cc2ccccc2C(CNC2CCCCC2)C1c1ccc(Cl)cc1Cl)NCCc1ccccc1 (some centres unmarked) to recorded pIC50 (system: MCR-4 (Homo sapiens, UniProt P32245))
Response line: 5.37

Prompt line: // map CCNc1ccc(C2C(CNC3CCCCC3)c3ccccc3CN2CCCC(CN)NCCc2ccccc2)cc1 (centres unmarked) to recorded pIC50 (system: MCR-4 (Homo sapiens, UniProt P32245))
Response line: 5.58

Prompt line: // map NCCNC(CN)CCN1Cc2ccccc2C(CNC2CCCCC2)C1c1ccc(-c2ccccc2)cc1 (centres unmarked) to recorded pIC50 (system: MCR-4 (Homo sapiens, UniProt P32245))
Response line: 4.90

Prompt line: // map CCNc1ccc(C2C(CNC3CCCCC3)c3ccccc3CN2CCCCC(CN)NCCNC)cc1 (centres unmarked) [TRG 2408-34] to recorded pIC50 (system: MCR-4 (Homo sapiens, UniProt P32245))
Response line: 4.47

Prompt line: // map CNCCNC(CN)CCCCN1Cc2ccccc2C(CNC2CCCCC2)C1c1ccc(Cl)cc1Cl (centres unmarked) [TRG 2408-16] to recorded pIC50 (system: MCR-4 (Homo sapiens, UniProt P32245))
Response line: 5.21

Prompt line: // map CCNc1ccc(C2C(CNC3CCCCC3)c3ccccc3CN2CCCCC(CN)NCCN)cc1 (centres unmarked) [TRG 2408-33] to recorded pIC50 (system: MCR-4 (Homo sapiens, UniProt P32245))
Response line: 4.41

* * *

# testedTarget: MCR-1 (Homo sapiens)
# Construct: expressed in transfected cells; host or cells: HEK 293
# measurementProtocol: Melanocortin receptor binding assay, competition with 125I-HP 467, HEK 293 cells expressing hMCR-1
# runParameters: inhibition of binding of 125I-HP 467, HEK 293 cells expressing MCR-1; TRG 2414 library; read-out: MC-1 IC50
attributeMeasured: IC50 (nM)
Kindly provide the numeric value in nM only, without the unit symbol.

Examples with answers:
COc1cccc(CNCC2c3ccccc3CN(CCCCC(CN)NCc3ccccc3)C2c2cccc(Oc3ccccc3)c2)c1 (stereo not drawn)    5860
CCCOc1ccc(C2C(CNCc3ccccc3OCC)c3ccccc3CN2CCCCC(N)CN)cc1 (mixture of isomers)    994
CCCOc1ccc(C2C(CNCCc3cccc(Cl)c3)c3ccccc3CN2CCCCC(N)CN)cc1 (stereo not drawn)    1960

Next, consider the following compound.
Prompt line: // map NCC(N)CCCCN1Cc2ccccc2C(CNC2CCCCC2)C1c1ccc(Cl)cc1Cl (mixture of isomers) to recorded IC50 (system: MCR-1 (Homo sapiens))
Response line: 992

* * *

# testedTarget: MCR-4 (Homo sapiens)
# Construct: expressed in transfected cells; host or cells: HEK 293
# measurementProtocol: Melanocortin receptor binding assay, competition with 125I-HP 467, HEK 293 cells expressing hMCR-4
# runParameters: inhibition of binding of 125I-HP 467, HEK 293 cells expressing MCR-4; read-out: MC-4 IC50
Readings of pIC50 for the listed compounds
# pIC50 = -log10(concentration in molar units)

NCC(CCCCN1Cc2ccccc2C(CNCCc2ccc(O)cc2)C1c1cc(C(F)(F)F)cc(C(F)(F)F)c1)NCc1ccc(-c2ccccc2)cc1 (centres unmarked)    5.04
COc1ccc(CCNCC2c3ccccc3CN(CCCCC(CN)NCc3ccc(OC)cc3)C2c2cccc(C(F)(F)F)c2)cc1 (centres unmarked)    5.85
CCCCCc1ccc(C2C(CNCCc3ccccc3)c3ccccc3CN2CCCC(CN)NCc2ccccc2)cc1 (centres unmarked)    5.97

Next, consider the following compound.
Prompt line: Tell me the measured pIC50 of COc1ccc(CNC(CN)CCCCN2Cc3ccccc3C(CNCCc3ccc(Oc4ccccc4)cc3)C2c2cc(C(F)(F)F)cc(C(F)(F)F)c2)cc1 (centres unmarked) , please.
Response line: 5.10

* * *

# testedTarget: MCR-4 (Homo sapiens)
# Construct: expressed in transfected cells; host or cells: HEK 293
# measurementProtocol: Melanocortin receptor binding assay, competition with 125I-HP 467, HEK 293 cells expressing hMCR-4
# runParameters: TRG 2408 and TRG 2409 libraries; inhibition of 125I-HP 467 binding; read-out: MC-4 IC50
Readings of IC50 for the listed compounds
Please provide the amount together with its unit, number first.

Prompt line: Tell me the measured IC50 of NCC(N)CCCCN1Cc2ccccc2C(CNC2CCCCC2)C1c1ccc(Cl)cc1Cl (centres unmarked) , please.
Response line: 1.58 µM

Prompt line: Tell me the measured IC50 of NCC(CCN1Cc2ccccc2C(CNC2CCCCC2)C1c1ccc(-c2ccccc2)cc1)NCCc1ccccc1 (centres unmarked) , please.
Response line: 10.4 µM

Prompt line: Tell me the measured IC50 of NCC(N)CCCCN1Cc2ccccc2C(CNC2CCCCC2)C1c1ccc(-c2ccccc2)cc1 (centres unmarked) , please.
Response line: 17.4 µM

Prompt line: Tell me the measured IC50 of CCNc1ccc(C2C(CNC3CCCCC3)c3ccccc3CN2CCCCC(N)CN)cc1 (mixture of isomers) [TRG 2408-31] , please.
Response line: 46.5 µM

Prompt line: Tell me the measured IC50 of NCCNC(CN)CCCCN1Cc2ccccc2C(CNC2CCCCC2)C1c1ccc(Cl)cc1Cl (centres unmarked) [TRG 2408-43] , please.
Response line: 7.49 µM

* * *

# testedTarget: MCR-1 (Homo sapiens)
# Construct: expressed in transfected cells; host or cells: HEK 293
# measurementProtocol: Melanocortin receptor binding assay, competition with 125I-HP 467, HEK 293 cells expressing hMCR-1
# runParameters: inhibition of binding of 125I-HP 467, HEK 293 cells expressing MCR-1; read-out: MC-1 IC50
Readings of log10(IC50) for the listed molecules
The figures below represent log10 of IC50, where IC50 is stated in nM.

Examples with answers:
CCNc1ccc(C2C(CNCCc3ccccc3)c3ccccc3CN2CCCC(CN)NCC2CC2CNCc2ccccc2)cc1 (stereo not drawn)    2.01
CCNc1ccc(C2C(CN)c3ccccc3CN2CCCC(CN)NCCCCO)cc1 (stereo not drawn)    3.04
CCOc1ccc(CCNCC2c3ccccc3CN(CCCCC(CN)NCc3ccc(-c4ccccc4)cc3)C2c2cc(C(F)(F)F)cc(C(F)(F)F)c2)cc1 (stereo not drawn)    4.00
CNC(CN)CCCN1Cc2ccccc2C(CNCCc2ccccc2)C1c1ccc([N+](=O)[O-])cc1 (stereo not drawn)    3.10
CCNc1ccc(C2C(CNCCc3ccccc3)c3ccccc3CN2CCCC(CN)NCCN)cc1 (stereo not drawn)    2.34

Prompt line: Tell me the measured log10(IC50) of CCNC(CN)CCCCN1Cc2ccccc2C(CN)C1c1ccc(CC)cc1 (stereo not drawn) , please.
Response line: 3.16

Prompt line: Tell me the measured log10(IC50) of CCCOc1ccc(C2C(CNCCc3ccccc3)c3ccccc3CN2CCCCC(CN)NCCc2ccccc2)cc1 (stereo not drawn) , please.
Response line: 2.92

Prompt line: Tell me the measured log10(IC50) of CCCCCc1ccc(C2C(CNCCc3ccccc3)c3ccccc3CN2CCCCC(CN)NC)cc1 (stereo not drawn) , please.
Response line: 2.65

Prompt line: Tell me the measured log10(IC50) of CCOc1ccc(C2C(CNCCc3ccccc3)c3ccccc3CN2CCCCC(CN)NCCc2ccccc2)cc1 (stereo not drawn) , please.
Response line: 2.69

Prompt line: Tell me the measured log10(IC50) of CCCCCc1ccc(C2C(CNCCc3ccccc3)c3ccccc3CN2CCCCC(CN)NCc2ccccc2)cc1 (stereo not drawn) , please.
Response line: 2.88

Prompt line: Tell me the measured log10(IC50) of CCNc1ccc(C2C(CN)c3ccccc3CN2CCCC(CN)NCCc2ccccc2)cc1 (stereo not drawn) [TRG 2411-179] , please.
Response line: 1.85

Prompt line: Tell me the measured log10(IC50) of Cc1ccc(CNC(CN)CCCCN2Cc3ccccc3C(CNCCc3ccc(Oc4ccccc4)cc3)C2c2cc(C(F)(F)F)cc(C(F)(F)F)c2)cc1 (stereo not drawn) , please.
Response line: 3.86

Prompt line: Tell me the measured log10(IC50) of CCCCCc1ccc(C2C(CN)c3ccccc3CN2CCCC[C@@H](CN)NCC)cc1 (stereo partly drawn) , please.
Response line: 2.44

Prompt line: Tell me the measured log10(IC50) of CCOc1ccc(CCNCC2c3ccccc3CN(CCCCC(CN)NCc3ccccc3)C2c2cc(C(F)(F)F)cc(C(F)(F)F)c2)cc1 (stereo not drawn) , please.
Response line: 3.41

Prompt line: Tell me the measured log10(IC50) of CCCCNc1ccc(C2C(CNC3CCCCC3)c3ccccc3CN2CCCC(N)CN)cc1 (stereo not drawn) , please.
Response line: 2.34
